Quick reference for z-score among some molecules
# protocol_text: FRG1 promoter luciferase signal modulators, primary screen, FRG1 inhibition for FSHD, cell-based, C2C12 myotubes, firefly/Renilla luciferase, luminescence (AID 1084)
# test_settings: higher = more signal, called active from +8 up or from −8 down
Calls of active or inactive are those of the source.
value_kind: z-score

[
  {
    "molecule": "C=C(C(=O)CC[C@H](OC(=O)c1ccccc1-c1ccccc1C(=O)O)c1ccc(CO)o1)C(C)C",
    "data_value": "0.112 (inactive)"
  },
  {
    "molecule": "O=C1C2C=CC(C(O)C(c3ccccc3)c3ccccc3)N(Nc3ccc([N+](=O)[O-])cc3)C2C(=O)N1c1ccccc1 (centres undefined)",
    "data_value": "0.117 (inactive)"
  },
  {
    "molecule": "CC1CC/C=C\\[C@H]2OC34C=CCN(Cn5nnc6ccccc65)C(=O)[C@H]3N(C(C)CO)C(=O)[C@@H]4C2C(=O)O1 (some centres undefined)",
    "data_value": "-0.389 (inactive)"
  },
  {
    "molecule": "COC(=O)[C@@]1(Cc2ccc(OC)cc2)[C@H]2c3cc(C(=O)N(C)C)n(CCc4ccc(OC)c(Br)c4)c3C[C@H]2CN1C(=O)c1ccccc1",
    "data_value": "-0.151 (inactive)"
  }
]
